System: HOP-62 NSCLC
Test: NCI tumour cell line growth inhibition, 48 h; in the data active = GI50 below about 0.43 µM; inactive = the rest
Respond only with the outcome that fits, drawn from 1.0 for active, 0.0 for inactive

The following compounds have reported results that may help.
Cc1cc2nc3ccc(N=Nc4ccc(N(C)C)cc4)cc3n(-c3ccccc3)c-2cc1=N ... 1.0
Cc1c(N2C(=O)/C(=C\c3ccc(O)cc3)N=C2c2ccccc2)c(=O)n(-c2ccccc2)n1C ... 0.0
CC[C@](O)(C(=O)O)c1cc2n(c(=O)c1CO)Cc1cc3ccccc3nc1-2 ... 1.0
CCOC(=O)Nc1nc2c(F)c(F)c(F)cc2s1 ... 0.0
COC(=O)C1CC2(c3ccc(C)cc3)C(c3ccc(C)cc3)=C(c3ccc(C)cc3)C1(c1ccc(C)cc1)S2=O (configuration not stated) ... 0.0
COc1ccc(C(=O)Nc2ncc(Cc3ccc(F)cc3)s2)cc1 ... 1.0
Oc1c(I)cc(I)cc1CNCCCN(Cc1ccccn1)Cc1ccccn1 ... 0.0
COc1cc(Nc2ncc3c(n2)-c2ccc(Cl)cc2C(c2c(F)cccc2OC)=NC3)ccc1C(=O)O ... 0.0
COC(=O)Nc1nc2c(OC)c(OC)c(OC)cc2[nH]1 ... 0.0
Cn1cc(-c2csc(-c3cn(CCN4CCOCC4)c4ccc(F)cc34)n2)c2cccnc21 ... 0.0

Could you please tell me the result logged for `CN(C)CCCNC(=O)c1cc2c3ccccc3[nH]c2c2ncccc12` in this assay?
0.0

Hi, sorry to bother you, what did the test record for COc1cc(C2c3cc4c(cc3C3OC(=O)C2C3CO)OCO4)cc(OC)c1OC (configuration not stated) ?
1.0

* * *

Exercise: state measured TGI for each of the compounds provided.
Tested on: T-47D breast
Experiment: NCI tumour cell line growth inhibition, 48 h

Example cases with answers are listed next.
O=C(NN=C1CCCCC1)Nc1ccccc1Cl ... > 100 µM
COc1cc(Nc2ncc3c(n2)-c2ccc(Cl)cc2C(c2c(F)cccc2OC)=NC3)ccc1C(=O)O ... > 91.2 µM
c1ccc(C(=NNc2nc3ccccc3[nH]2)c2ccccn2)nc1 ... > 100 µM

Report TGI for each item below.
1. C=CCC1NCCC2=C1C(S(=O)(=O)c1ccc(C)cc1)c1ccccc12 (stereo not given)
2. C/C1=C\CC[C@@](C)(O)[C@H]2C[C@H](CC/C(C)=C/CC1)C1(CC1)C(=O)O2

1: 26.1 µM; 2: > 100 µM

* * *

Tested on: OVCAR-4 ovarian
Assay: NCI tumour cell line growth inhibition, 48 h
Task for the reader: assign each of the following molecules its reported GI50.

Known results for molecules:
Nc1c(C(=O)Nc2cccc3ccccc23)sc2nc3c(cc12)CCCC3 ... 1.11 µM
CC(=O)NNC(=O)c1nn(-c2ccc(Cl)cc2)cc1OC(C)=O ... 79.6 µM
C/C1=C\CC[C@@](C)(O)[C@H]2C[C@H](CC/C(C)=C/CC1)C1(CC1)C(=O)O2 ... 63.4 µM
COc1cc2c(cc1OCCCCCCNC(=O)c1cc3ccccc3[nH]1)N=CC1CCCN1C2=O (stereo not given) ... 89.4 µM
CCOC(=O)Nc1nc2c(F)c(F)c(F)cc2s1 ... 37.5 µM

Record GI50 per entry; entries follow.
1. COC(=O)[C@]12CC[C@@H](C)[C@H](C)[C@@H]1C1=CC[C@@H]3[C@@]4(C)C(c5ncon5)=C[C@@](C)(CO)C4=CC[C@@]3(C)[C@]1(C)CC2
2. Cc1cc(C)cc(Nc2nccc(-c3c(-c4ccc(F)cc4)ncn3C3CCNCC3)n2)c1

1. 3.1 µM
2. 1.49 µM

Report GI50 for each item below.
1. CC(C)[C@@H](C(=O)O[C@@H]1/C=C/C(=O)O[C@@H](C)CCC/C=C/[C@@H]2C[C@H](O)C[C@H]21)[N+](C)(C)C
2. COC(=O)Nc1nc2c(OC)c(OC)c(OC)cc2[nH]1
3. Oc1c(I)cc(I)cc1CNCCCN(Cc1ccccn1)Cc1ccccn1

1. > 100 µM
2. 64.2 µM
3. 1.02 µM
